System: THP-1
Test: Cytotoxicity against PMA-differentiated human THP-1 cells assessed as reduction in cell viability measured after 72 hrs by MTT assay
Assay type: toxicity, cell-based
Conditions: thp-1, 72 h
Readout Kind: CC50 (µM)
Give the number; µM is assumed, so skip it.

Data request: Under THP-1: report CC50 of `O=C(NCCc1ccc(F)cc1)c1ccc(CN(C(=O)N2CCN(CCCN3c4ccccc4Sc4ccc(Cl)cc43)CC2)c2ccc(F)cc2)o1` .
Data returned: 6.5

====

Below, each entry is listed alongside its reported selectivity ratio.
Assay: Selectivity index, ratio of CC50 for cytotoxicity against human THP-1 cells to EC50 for antileishmanial activity against axenic amastigote form of Leishmania infantum MHOM/TN/80/IPT1
Format: toxicity, cell-based
Details: read-out: Ratio CC50/EC50
// return a plain number; no unit text

> print(dat)
                         structure.notation  test.value
1  O=C(NCCc1ccc(F)cc1)c1ccc(CN(C(=O)N2CCN(CCCN3c4ccccc4Sc4ccc(Cl)cc43)CC2)c2ccc(F)cc2)o1         0.5
2  O=C(NCCc1ccc(F)cc1)c1ccc(CN(C(=O)N2CCN(CCCN3c4ccccc4Sc4ccc(C(F)(F)F)cc43)CC2)c2ccc(F)cc2)o1         1.8

// next item, selectivity ratio requested
Data request: Give the value of selectivity ratio reported for the following: `O=C(NCCc1ccccc1)c1ccc(CN(C(=O)N2CCN(Cc3ccc(Cl)c(Cl)c3)CC2)c2ccc(F)cc2)o1`
Data returned: 1.1

====

Test: Cytotoxicity against PMA-differentiated human THP-1 cells assessed as reduction in cell viability measured after 72 hrs by MTT assay
Assay type: toxicity, cell-based
Conditions: PMA-differentiated THP-1 cells
Readout Kind: CC50 at 72 h (µM)
Value expressed in µM; do not type the unit.

> print(dat)
                         structure.notation  readout.kind  test.value
1  O=C(NCCc1ccc(F)cc1)c1ccc(CN(C(=O)N2CCN(CCCN3c4ccccc4Sc4ccc(C(F)(F)F)cc43)CC2)c2ccc(F)cc2)o1  CC50 at 72 h        23.4

Data request: Answer with the recorded CC50 at 72 h for the compound listed here: `O=C(NCCc1ccccc1)c1ccc(CN(C(=O)N2CCN(Cc3ccc(Cl)c(Cl)c3)CC2)c2ccc(F)cc2)o1`
Data returned: 11.7

====

Parameter: CC50 at 72 h. Scope: all listed entries.
Assay: Cytotoxicity against BALB/c mouse peritoneal macrophages assessed as reduction in cell viability measured after 72 hrs by MTT assay
Type: toxicity, cell-based, Peritoneal macrophage
Details: BALB/c, peritoneal macrophages
Report the value in µM with no unit label.

> print(dat)
                         structure.notation  test.value
1  O=C(NCCc1ccc(F)cc1)c1ccc(CN(C(=O)N2CCN(CCCN3c4ccccc4Sc4ccc(C(F)(F)F)cc43)CC2)c2ccc(F)cc2)o1        30.7

// switching to the query compound
Data request: Supply recorded CC50 at 72 h for `O=C(NCCc1ccccc1)c1ccc(CN(C(=O)N2CCN(Cc3ccc(Cl)c(Cl)c3)CC2)c2ccc(F)cc2)o1` here.
Data returned: 14.4
